Assay: RP, Waters ACQUITY UPLC BEH C18, 100 × 2.1 mm, 1.7 µm; A: water + 0.1% formic acid, pH 3; B: 80% acetonitrile + 20% acetone + 0.1% formic acid, pH 3; gradient (min/%B) 0/0 6/100
Conditions: stereoisomer not certain
LC retention time vs 1 min: at or above is y, below is n.

NCCCCC(N)C(=O)O (stereo not given) = n
CN1CC(=O)NC1=N = n

Query: For this molecule, is measured LC retention time 1 min or higher? CC(O)C(NC(=O)C1CCCN1)C(=O)O (stereo not given)
Result: n

Query: Given the entry CC(O)C(N)C(=O)O (stereo not given) , answer whether its LC retention time meets or surpasses 1 min.
Result: n

Query: Reported LC retention time at or above 1 min? CCC(C)C(=O)C(=O)O (stereo not given)
Result: y

Query: Record CC12CCC(=O)C=C1CCC1C2C(O)CC2(C)C1CCC2(O)C(=O)CO (stereo not given) [hydrocortisone, cortisol] ; criterion: LC retention time no lower than 1 min. Met?
Result: y

Query: Exam item: decide whether the reported LC retention time for O=C(O)C(O)Cc1c[nH]c2ccccc12 (racemic) is at least 1 min.
Result: y

Query: Item CC(C)C(NC(=O)C(N)CCC(=O)O)C(=O)O (stereo not given) with LC retention time of 1 min or above?
Result: y

Query: Would you say CC(C)(O)C(=O)O [alpha-hydroxyisobutyric acid] shows LC retention time at minimum 1 min?
Result: y

Query: For this molecule, is measured LC retention time 1 min or higher? CCC(C)C1NC(=O)C(CCC(=O)O)NC1=O (stereo not given)
Result: y

Query: Does CC(C)C(N)C(=O)NC(CCC(=O)O)C(=O)O (stereo not given) have a reported LC retention time of at least 1 min?
Result: n

* * *

Assay: RP, Waters ACQUITY UPLC HSS T3, 100 × 2.1 mm, 1.8 µm; A: water + 0.1% formic acid, pH 3; B: 30% methanol + 70% acetonitrile + 0.1% formic acid, pH 3; gradient (min/%B) 0.0/5 1.0/8 2.0/15 3.0/40 4.0/70 4.5/100 5.0/100 6.4/100 6.6/5.0 6.8/5.0 7.0/5.0
Settings: stereoisomer not certain
LC retention time less than 0.8 min is y; LC retention time greater than or equal to 0.8 min is n.

O=C(O)C1OC(Oc2ccc(O)cc2)C(O)C(O)C1O (configuration not stated) [hydroquinone-glucuronide] = n
NCCS(=O)O [hypotaurine] = y

Query: Please check: LC retention time for OCC(O)c1ccc(O)c(O)c1 (configuration not stated) [3,4-dihydroxyphenylglycol] , strictly under 0.8 min or not?
Result: n

Query: Problem: For the molecule CS(=O)CCCN=C=S (configuration not stated) [iberin] , is LC retention time under 0.8 min?
Result: n

Query: In the record for CC(C)CC(=O)NCC(=O)O [isovalerylglycine] , is LC retention time less than 0.8 min?
Result: n

Query: # check: LC retention time < 0.8 min for O=C(O)C1CCCCN1 (configuration not stated) [pipecolinic acid]
Result: y

Query: Is the reported LC retention time for CNCC(O)c1ccc(O)c(O)c1 (configuration not stated) [epinephrine] strictly below 0.8 min?
Result: y

Query: For this molecule, is LC retention time lower than 0.8 min? COC1=C(OC)C(=O)C(CC=C(C)C)=C(C)C1=O [coenzyme q1]
Result: n

Query: For this molecule, is LC retention time lower than 0.8 min? O=c1[nH]cc(C2OC(CO)C(O)C2O)c(=O)[nH]1 (configuration not stated)
Result: y

Query: A record lists O=C1OC(C(O)CO)C(O)=C1O (configuration not stated) [Ascorbic acid] . Is its LC retention time below 0.8 min?
Result: y
